- test: Test B: Cytotoxicity Assay (same protocol as Test A, uninfected cells)
- Type: cell-based
- applied.conditions: human, uninfected MT-4 cells, CellTiter-Glo
property.label: CC50 at 5 days (µM)
Respond numerically; units are µM and should not be typed.

If you can, please state the reported CC50 at 5 days value of `Cn1nc(NS(C)(=O)=O)c2c(Cl)ccc(-c3ccc(C#CC(C)(C)S(=O)(=O)C4CC4)nc3[C@H](Cc3cc(F)cc(F)c3)NC(=O)Cn3nc(C(F)F)c(Cl)c3C(F)F)c21` . 23.5

If you can, please state the reported CC50 at 5 days value of `Cn1nc(NS(C)(=O)=O)c2c(Cl)ccc(-c3ccc(C#CC(C)(C)S(=O)(=O)C4CC4)nc3[C@H](Cc3cc(F)cc(F)c3)NC(=O)Cn3nnc4ccccc43)c21` . 21.8

----------
- test: Test B: Cytotoxicity Assay (same protocol as Test A, uninfected cells)
- Type: cell-based
- applied.conditions: human, uninfected MT-4 cells, CellTiter-Glo
property.label: CC50 at 5 days

If you can, please state the reported CC50 at 5 days value of CC1(S(=O)(=O)Nc2nn(CC(F)F)c3c(-c4ccc(C#CC(C)(C)S(=O)(=O)C5CC5)nc4[C@H](Cc4cc(F)cc(F)c4)NC(=O)Cn4nc(C(F)F)c5c4C(F)(F)[C@@H]4C[C@H]54)ccc(Cl)c23)CC1 [Example 2F] . > 57.1 µM

If you can, please state the reported CC50 at 5 days value of Cn1nc(NS(C)(=O)=O)c2c(Cl)ccc(-c3ccc(C#CC(C)(C)S(=O)(=O)C4CC4)nc3[C@H](Cc3cc(F)cc(F)c3)NC(=O)Cn3nc(C(F)(F)F)cc3C3CC3)c21 [Example 44] . > 54.8 µM

If you can, please state the reported CC50 at 5 days value of CC(C)(C#Cc1ccc(-c2ccc(Cl)c3c(NS(C)(=O)=O)nn(C4COC4)c23)c([C@H](Cc2cc(F)cc(F)c2)NC(=O)Cn2nc(C(F)F)c3c2C(F)(F)[C@@H]2C[C@H]32)n1)S(=O)(=O)C1CC1 [Example 18] . 41.6 µM

If you can, please state the reported CC50 at 5 days value of CC1(S(=O)(=O)Nc2nn(CC(F)F)c3c(-c4ccc(C#CC(C)(C)S(=O)(=O)C5CC5)nc4[C@H](Cc4cc(F)cc(F)c4)NC(=O)Cn4nc(C(F)(F)F)c5c4C(F)(F)[C@@H]4C[C@H]54)ccc(Cl)c23)CC1 [Example 22] . > 57.1 µM

----------
- test: Test B: Cytotoxicity Assay (same protocol as Test A, uninfected cells)
- Assay type: cell-based
- applied.conditions: human, uninfected MT-4 cells, CellTiter-Glo
property.label: CC50 at 5 days

If you can, please state the reported CC50 at 5 days value of `CCS(=O)(=O)Nc1nn(CC(F)(F)F)c2c(-c3ccc(C#CC(C)(C)S(=O)(=O)C4CC4)nc3[C@H](Cc3cc(F)cc(F)c3)NC(=O)Cn3nc(C(F)(F)F)c4c3C(F)(F)[C@@H]3C[C@H]43)ccc(Cl)c12` . > 50 µM

If you can, please state the reported CC50 at 5 days value of `Cn1nc(NS(C)(=O)=O)c2c(Cl)ccc(-c3ccc(C#CC(C)(C)S(=O)(=O)C4CC4)nc3[C@H](Cc3cc(F)cc(F)c3)NC(=O)Cc3ncc[nH]3)c21` . 11.7 µM

If you can, please state the reported CC50 at 5 days value of `CCS(=O)(=O)Nc1nn(C)c2c(-c3ccc(C#CC(C)(C)S(=O)(=O)C4CC4)nc3[C@H](Cc3cc(F)cc(F)c3)NC(=O)Cn3nc(C(F)(F)F)c4c3C(F)(F)[C@@H]3C[C@H]43)ccc(Cl)c12` . > 57.1 µM

If you can, please state the reported CC50 at 5 days value of `CC(C)(C#Cc1ccc(-c2ccc(Cl)c3c(NS(C)(=O)=O)nn(CC(F)(F)F)c23)c([C@H](Cc2cc(F)cc(F)c2)NC(=O)Cn2nc(C(F)(F)F)c3c2C(F)(F)[C@@H]2C[C@H]32)n1)S(=O)(=O)C1CC1` . > 50 µM

These data points were gathered from patent US11753399B2.
